Values compiled from paper PMC8752837.

# Target: Human BAK-∆TM-His6 (BAK) (Homo sapiens)
# Construct: C-terminus truncated recombinant human BAK containing C-terminal 6× histidine tag (MEAS-BAK); made in house; host or cells: E. coli T7 Express pLac I/Y
# Sequence (Q16611 1-186 limits assumed): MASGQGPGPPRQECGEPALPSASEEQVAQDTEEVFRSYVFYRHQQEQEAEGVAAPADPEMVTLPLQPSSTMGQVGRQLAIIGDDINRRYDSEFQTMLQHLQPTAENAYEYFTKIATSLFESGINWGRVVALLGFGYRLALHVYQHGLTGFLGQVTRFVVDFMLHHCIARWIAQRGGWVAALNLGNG
# Test details: Liposome permeabilization assay (ANTS/DPX dye release from LUVs): activation of WT BAK by BH3 peptides
# Assay type: biochemical
# Parameters: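 traces normalized between buffer minimum and 3% CHAPS maximum fluorescence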
# Assay context: 1 μM peptide + 50 nM BAK; AUC 0-88 mins of liposome permeabilization; Experiment-2, mean of N replicates
Test readout: AUC for Experiment-2 (Mean)
The reply should be a number, written without any unit.

Request body: readout AUC for Experiment-2 (Mean), system Human BAK-∆TM-His6 (BAK) (Homo sapiens), query Ac-EDIIRNWARHLAQVGDSMDRSI-NH2 [W(1)] . Return the value.
7.491

Entry Ac-EDIIRNIARHLAQWGDSMDRSI-NH2 [W(3)] please
9.0873

What do we get for Ac-EDIIRNIARHLAQVGDSWDRSI-NH2 [W(4)] ?
21.49

And what about the substance Ac-EDIIRNIARHYAQVGDSMDRSI-NH2 [Y(2)] ?
5.3994

Try this substance next: Ac-EDIIRNIARHLAQVGDSYDRSI-NH2 [Y(4)]
26.226

Next up: Ac-EDIWRNIARHLAQVGDSMDRSI-NH2 [W(0')]
10.6297

* * *

# Target: Human BAK-∆TM-His6 (BAK) (Homo sapiens)
# Construct: C-terminus truncated recombinant human BAK containing C-terminal 6× histidine tag (MEAS-BAK); made in house; host or cells: E. coli T7 Express pLac I/Y
# Test details: Liposome permeabilization assay (ANTS/DPX dye release from LUVs): activation of WT BAK by BH3 peptides
# Assay type: biochemical
# Design: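 traces normalized between buffer minimum and 3% CHAPS maximum fluorescence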
# Assay context: 1 μM peptide + 50 nM BAK; AUC 0-88 mins of liposome permeabilization; Experiment-1, mean of N replicates
Test readout: AUC for Experiment-1 (Mean)
// keep it numeric: no unit symbol after the value

So what does the record say about AUC for Experiment-1 (Mean) for Ac-EDIIRNWARHLAQVGDSMDRSI-NH2 [W(1)] ?
5.265

Note, next up: Ac-EDIIRNIARHMAQVGDSMDRSI-NH2 [M(2)]
8.056

Please give the result for Ac-EDIWRNIARHLAQVGDSMDRSI-NH2 [W(0')] too.
15.025

// repeat for Ac-EDIIRNIARHFAQVGDSMDRSI-NH2 [F(2)] and report
10.629

Request: Ac-EDIIRNIARHLAQVGDSFDRSI-NH2 [F(4)]
9.5438

Again, but for Ac-EDIIRNIARHLAQVGDSYDRSI-NH2 [Y(4)]
22.669

Now the same for Ac-EDIIRNIARHLAQFGDSMDRSI-NH2 [F(3)]
18.713

Could you do the same for Ac-EDIIRNIARHWAQVGDSMDRSI-NH2 [W(2)] , please?
4.9093

Moving on to Ac-EDIIRNIARHLAQWGDSMDRSI-NH2 [W(3)]
14.061

Next substance up: Ac-EDIIRNIARHYAQVGDSMDRSI-NH2 [Y(2)]
4.2367

Same read-out for Ac-EDIIRNIARHLAQVGDSWDRSI-NH2 [W(4)] ?
16.565

One more substance: Ac-EDIIRNIARHLAQYGDSMDRSI-NH2 [Y(3)]
14.1

Same read-out for Ac-EDWIRNIARHLAQVGDSMDRSI-NH2 [W(0)] ?
14.3256

Repeat for the following substance: Ac-EDIIRNIARHLAQMGDSMDRSI-NH2 [M(3)]
20.936

* * *

# Target: Human BAK-∆TM-His6 (BAK) (Homo sapiens, UniProt Q16611)
# Construct: C-terminus truncated recombinant human BAK containing C-terminal 6× histidine tag (MEAS-BAK); made in house; host or cells: E. coli T7 Express pLac I/Y
# Test details: Liposome permeabilization assay (ANTS/DPX dye release from LUVs): activation of WT BAK by BH3 peptides
# Type: biochemical
# Assay context: Fig. 4e; 50 nM BAK; AUC vs peptide dose (Suppl. Fig. 6b); n = 2 experiments each of n = 3 technical replicates; read-out: EC50 LP
Test readout: pEC50
Remember, pEC50 is on a log scale: it is -log10 of the molar concentration.

Which pEC50 is reported for this substance? Ac-EDIWRNIARHLAQVGDSMDRSI-NH2 [W(0')]
6.62

Could you do the same for Ac-EDIIRNIARHLAQMGDSMDRSI-NH2 [M(3)] , please?
6.94

Record: Ac-EDWIRNIARHLAQVGDSMDRSI-NH2 [W(0)]
6.44

Same question, Ac-EDIIRNIARHWAQVGDSMDRSI-NH2 [W(2)] this time
5.97

Repeat with Ac-EDIIRNIARHLAQVGDSWDRSI-NH2 [W(4)]
6.58

Moving on to Ac-EDIIRNIARHLAQVGDSFDRSI-NH2 [F(4)]
6.64

Now this one: Ac-EDIIRNIARHYAQVGDSMDRSI-NH2 [Y(2)]
5.92

Next record, please: Ac-EDIIRNWARHLAQVGDSMDRSI-NH2 [W(1)]
5.77

Same read-out for Ac-EDIIRNIARHLAQWGDSMDRSI-NH2 [W(3)] ?
6.79

What about this substance? Ac-EDIIRNIARHFAQVGDSMDRSI-NH2 [F(2)]
6.54

Follow-up entry: Ac-EDIIRNIARHMAQVGDSMDRSI-NH2 [M(2)]
6.44

Further, for Ac-EDIIRNIARHLAQFGDSMDRSI-NH2 [F(3)] ?
6.96

Further, for Ac-EDIIRNIARHLAQYGDSMDRSI-NH2 [Y(3)] ?
6.43

One more substance: Ac-EDIIRNIARHLAQVGDSYDRSI-NH2 [Y(4)]
6.67

* * *

# Target: Human BAK-∆TM-His6 (BAK) (Homo sapiens, UniProt Q16611)
# Construct: C-terminus truncated recombinant human BAK containing C-terminal 6× histidine tag (MEAS-BAK); made in house; host or cells: E. coli T7 Express pLac I/Y
# Test details: Liposome permeabilization assay (ANTS/DPX dye release from LUVs): activation of WT BAK by BH3 peptides
# Format: biochemical
# Parameters: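 traces normalized between buffer minimum and 3% CHAPS maximum fluorescence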
# Assay context: 1 μM peptide + 50 nM BAK; AUC 0-88 mins of liposome permeabilization; Experiment-2, mean of N replicates
Output class 1 for AUC for Experiment-2 (Mean) not less than 10; output class 0 otherwise.

API: above_or_equal(metric=AUC for Experiment-2 (Mean), cutoff=10) for item Ac-EDIIRNIARHMAQVGDSMDRSI-NH2 [M(2)]
class 0

Try Ac-EDWIRNIARHLAQVGDSMDRSI-NH2 [W(0)] next.
class 1

What do we get for Ac-EDIIRNIARHLAQMGDSMDRSI-NH2 [M(3)] ?
class 1

Same question, Ac-EDIIRNIARHLAQYGDSMDRSI-NH2 [Y(3)] this time
class 1

Same read-out for Ac-EDIIRNIARHLAQVGDSFDRSI-NH2 [F(4)] ?
class 0

Ac-EDIIRNIARHWAQVGDSMDRSI-NH2 [W(2)] ?
class 0

Can you handle Ac-EDIIRNIARHFAQVGDSMDRSI-NH2 [F(2)] next?
class 0

Try this substance next: Ac-EDIIRNIARHLAQFGDSMDRSI-NH2 [F(3)]
class 1

* * *

# Target: Human BAK-∆TM-His6 (BAK) (Homo sapiens, UniProt Q16611)
# Construct: C-terminus truncated recombinant human BAK containing C-terminal 6× histidine tag (MEAS-BAK); made in house; host or cells: E. coli T7 Express pLac I/Y
# Test details: Liposome permeabilization assay (ANTS/DPX dye release from LUVs): activation of WT BAK by BH3 peptides
# Assay type: biochemical
# Design: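 traces normalized between buffer minimum and 3% CHAPS maximum fluorescence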
# Assay context: 50 μM peptide + 50 nM BAK; AUC 0-88 mins of liposome permeabilization; Experiment-2, mean of N replicates
Class Satisfied: AUC for Experiment-2 (Mean) at least 9. Class Not satisfied: AUC for Experiment-2 (Mean) below 9.

Does the substance Ac-EDIIRNIARHLAQVGDSWDRSI-NH2 [W(4)] have recorded AUC for Experiment-2 (Mean) that is 9 or more?
Satisfied

Quick one: Ac-EDIIRNIARHFAQVGDSMDRSI-NH2 [F(2)]
Not satisfied

Consider next the substance Ac-EDWIRNIARHLAQVGDSMDRSI-NH2 [W(0)] in the same way.
Satisfied

// repeat for Ac-EDIIRNIARHWAQVGDSMDRSI-NH2 [W(2)] and report
Not satisfied

// same read-out, input: Ac-EDIIRNIARHLAQWGDSMDRSI-NH2 [W(3)]
Not satisfied

Param item: Ac-EDIIRNIARHMAQVGDSMDRSI-NH2 [M(2)]
Not satisfied

Also need Ac-EDIIRNIARHLAQVGDSFDRSI-NH2 [F(4)] , thanks.
Satisfied

Consider next the substance Ac-EDIIRNIARHLAQFGDSMDRSI-NH2 [F(3)] in the same way.
Satisfied

Queued: Ac-EDIIRNIARHLAQYGDSMDRSI-NH2 [Y(3)]
Satisfied

Now the same for Ac-EDIIRNIARHLAQMGDSMDRSI-NH2 [M(3)]
Satisfied

Further, for Ac-EDIIRNIARHYAQVGDSMDRSI-NH2 [Y(2)] ?
Not satisfied

Same thing, different substance: Ac-EDIIRNIARHLAQVGDSYDRSI-NH2 [Y(4)]
Satisfied
